System: SR leukemia
assay-comment: NCI-60 one-dose screen, 48 h
experimental-setup: 10 µM unless noted
Compounds without any hit were thinned out: in the full panel of roughly 83,000, 20% have a hit. Calls of active or inactive are those of the source. How the source made its calls: active means growth percent below 10; inactive means the rest.
Labels: y = active, n = inactive

molecule	label
COC(=O)[C@]12CC[C@@H](C)[C@H](C)[C@@H]1C1=CC[C@@H]3[C@@]4(C)C(C=O)=C[C@@](C)(COS(C)(=O)=O)[C@@H]4C(=O)C[C@@]3(C)[C@]1(C)CC2	n
COc1ccc2c(c1)CCCN2c1c2ccccc2nc2ccccc12	n
COc1cccc(-c2nn(-c3ccccc3)cc2-c2ccnc(NCCNC(=O)Nc3ccccc3)c2)c1	y
COc1nc2c(c(=O)n1C)CN(c1ccccc1)C(=O)CN2C	n
O=C(c1ccc(Nc2nccc(NCCCCNc3ccnc4cc(Cl)ccc34)n2)cc1)N1CCCCC1	y
COc1ccc(C(=O)COc2ccc(/C=C3\Oc4ccccc4C3=O)cc2)cc1	n
N=c1sc(Cc2ccc(Cl)cc2)cn1CC(=O)c1ccc(F)cc1	n
COC(=O)[C@]12CC[C@@H](C)[C@H](C)[C@@H]1C1=CC[C@@H]3[C@@]4(C)C(C=O)=C[C@@](C)(COC(C)=O)C4=CC[C@@]3(C)[C@]1(C)CC2	y
CC(=O)N1N=C(c2ccc(Nc3nc(Nc4ccc(F)cc4)nc(Nc4ccc(F)cc4)n3)cc2)CC1c1cccc([N+](=O)[O-])c1 (centres undefined)	n
CCOC(=O)c1c2ncccc2n2c(=O)n(-c3ccccc3C)nnc12	n
CC(=O)n1c(-c2ccc(Cl)cc2)nc2c(c1=O)C(c1ccc(Cl)cc1)c1sc3c(Cl)cccc3c1O2 (centres undefined)	y
COC(=O)[C@]12CC[C@@H](C)[C@H](C)[C@@H]1C1=CC[C@@H]3[C@@]4(C)C(C=O)=C[C@@](C)(COC(=O)c5ccco5)C4=CC[C@@]3(C)[C@]1(C)CC2	y
CC(C)(C)n1cc(-c2ccnc(NCCCNS(=O)(=O)c3ccccc3)c2)c(-c2ccccc2)n1	n
Cc1ccc(-c2cc3c(cc2O)C2CCCCC2(N2CCOCC2)O3)cc1 (centres undefined)	n
CC1SC(c2ccc(OCc3ccccc3)cc2)N(NC(=O)C(O)(c2ccccc2)c2ccccc2)C1=O (centres undefined)	n
O=Cc1c[nH]c2ccc(-c3csc4ccccc34)cc12	y
COC(=O)[C@]12CC[C@@H](C)[C@H](C)[C@@H]1C1=CC[C@@H]3[C@@]4(C)C(C=O)=C[C@@](C)(COC(=O)/C=C/c5ccccc5)[C@@H]4[C@H](O)C[C@@]3(C)[C@]1(C)CC2	y
O=C(COc1ccc(/C=C2\Oc3ccccc3C2=O)cc1)Nc1nc2c(s1)CCCC2	y
COc1ccc2c(c1)O/C(=C/c1ccc(OCC(=O)c3ccccc3)cc1)C2=O	n
COc1cccc(C(=O)NCCCNc2cc(-c3cn(-c4ccccc4)nc3-c3cccc(OC)c3)ccn2)c1	y
O=C(Nc1cccc(C(F)(F)F)c1)Nc1cccc(C(F)(F)F)c1	y
CC(C)(C)C(CCc1ccc(Cl)cc1)N1CCN(C2CCCCC2)CC1 (centres undefined)	y
NC(=N\N=C/c1ccccc1[N+](=O)[O-])/C(N)=N\N=C/c1ccccc1[N+](=O)[O-]	n
N#Cc1c(N2CCNCC2)nc2sc3cc(Cl)c(Cl)cc3n2c1=N	n
Clc1cccc(Cl)c1/C=C/c1cc(/C=C/c2c(Cl)cccc2Cl)[nH]n1	n
CCCCCS(=O)(=O)Nc1ccc(C(=O)O)cc1	n
Cc1cc(NCc2cc(Nc3ccnc4cc(Cl)ccc34)ccc2F)nc(N2CCOCC2)n1	y
COc1ccc(-c2csc(C3=C(O)CN(C(C)C)C3=N)n2)cc1OC	n
COc1cccc(-c2nn(-c3ccccc3)cc2-c2ccnc(NCCNC(=O)Nc3ccc(Cl)c(Cl)c3)c2)c1	y
C=C(C)[C@@H]1CC[C@]2(C(=O)NC3CCCCC3)CC[C@]3(C)[C@H](CC[C@@H]4[C@@]5(C)CCCNC(C)(C)[C@@H]5CC[C@]43C)[C@@H]12	y
O=c1c2c3c(sc2nc(N/N=C/c2ccc(Br)cc2)n1Cc1ccccc1)CCCC3	n
CCN(CC)CCN1C(=O)c2c(c(C)c3c(oc4cc(O)ccc43)c2C)C1=O	y
CCCCCCCCn1ccc2cc(NC(=O)Cn3cc(CN4CCCC4)nn3)ccc21	n
CC1O[C@@H](OC2[C@H](OC(=O)/C=C/c3ccc(O)c(O)c3)C(COC3O[C@H](C)C(O)C(O)[C@@H]3O)O[C@@H](OCCc3ccc(O)c(O)c3)[C@H]2O)[C@@H](O)C(O)[C@H]1O (some centres undefined)	n

The reported measurements were obtained from PubChem BioAssay (NCI).
